Entry source: patent US20230295259A1

Target: T1, human ferroportin (SLC40A1) fused in frame with GFP, stably expressed in HEK293 cells (human, UniProt Q9NP59 1-571)
T1 sequence (looked up): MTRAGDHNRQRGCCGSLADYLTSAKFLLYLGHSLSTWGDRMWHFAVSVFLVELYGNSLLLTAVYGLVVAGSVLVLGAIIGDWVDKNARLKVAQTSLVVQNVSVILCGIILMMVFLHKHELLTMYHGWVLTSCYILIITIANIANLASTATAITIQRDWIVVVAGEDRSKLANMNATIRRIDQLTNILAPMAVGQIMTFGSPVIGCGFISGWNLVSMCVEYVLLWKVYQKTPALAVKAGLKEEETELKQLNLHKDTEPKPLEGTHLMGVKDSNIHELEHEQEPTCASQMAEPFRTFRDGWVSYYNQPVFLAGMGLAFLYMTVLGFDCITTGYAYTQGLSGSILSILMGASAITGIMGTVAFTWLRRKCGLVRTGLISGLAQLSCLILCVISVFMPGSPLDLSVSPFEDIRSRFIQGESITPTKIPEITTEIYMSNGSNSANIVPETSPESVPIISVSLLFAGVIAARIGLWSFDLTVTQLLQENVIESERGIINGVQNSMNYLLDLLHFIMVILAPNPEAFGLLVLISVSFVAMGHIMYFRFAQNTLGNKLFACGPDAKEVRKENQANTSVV
Assay: cell-based or functional assay
Positions of bridges follow the written chain, without caps; N, C: chain ends. Non-standard residues stand in square brackets, D forms with d. Groups on a side chain read outwards from the residue. Primed or numbered codes have the meaning given here. *: point of attachment. 2Peg11′ = —[C(O)—CH2—CH2—(OCH2CH2)12—NH]— (PEG12 unit); PEG12 = NCCOCCOCCOCCOCCOCCOCCOCCOCCOCCOCCOCCOCCC(=O)O; Dip = N[C@H](C(=O)O)C(c1ccccc1)c1ccccc1; Palmitoyl = CCCCCCCCCCCCCCCC(=O)*; β3hF = N[C@H](CC(=O)O)Cc1ccccc1; Isovaleryl = CC(C)CC(=O)*
measure: FPN EC50 (nM)

XETHXPCIXXXC (Isovaleric Acid-E-T-H-[Dpa]-P-[Cys]-I-[Lys(2Peg11′_C18_Diacid)]-[bhPhe]-[(D)Lys]-[Cys]-NH2) [Compound 113] :: 8.06

I = XETHXPCIXXXC (Isovaleric Acid-E-T-H-[Dpa]-P-[Cys]-I-[Lys(1Peg2_1Peg2_Ahx_C18_Diacid)]-[bhPhe]-[(D)Lys]-[Cys]-NH2) [Compound 12]
II = Isovaleryl-ETH[Dip]PCIK(2Peg20K)[β3hF]K([PEG12-Palmitoyl])RC-NH2 (disulfide 6-12 (inferred)) [Compound 50]
III = XETHXPCIXXXCX (Isovaleric Acid-E-T-H-[Dpa]-P-[Cys]-I-[Lys(Ac)]-[bhPhe]-[(D)Lys(Ac)]-[Cys]-[(D)Glu]-NH2) [Compound 123]
IV = Isovaleryl-ETH[Dip]PCIK([2Peg11′-Palmitoyl])[β3hF]K(2Peg20K)RC-NH2 (disulfide 6-12 (inferred)) [Compound 47]
Request: Ascending by FPN EC50, please. Answer by naming the labels in the order asked.
Response: II, I, IV, III
